target: human GLP-1R (Homo sapiens, UniProt P43220); construct: host or cells: HEK293; test: GLP-1R cAMP assay (Example B1a, HTRF, 30 min at room temperature); assay type: cell-based; details: cAMP accumulation in HEK293 expressing human GLP-1R, no BETP, 30 min room temperature (Method B1a, compounds ID 1-609), Table 1; read-out: EC50
Sequence (P43220 24-463): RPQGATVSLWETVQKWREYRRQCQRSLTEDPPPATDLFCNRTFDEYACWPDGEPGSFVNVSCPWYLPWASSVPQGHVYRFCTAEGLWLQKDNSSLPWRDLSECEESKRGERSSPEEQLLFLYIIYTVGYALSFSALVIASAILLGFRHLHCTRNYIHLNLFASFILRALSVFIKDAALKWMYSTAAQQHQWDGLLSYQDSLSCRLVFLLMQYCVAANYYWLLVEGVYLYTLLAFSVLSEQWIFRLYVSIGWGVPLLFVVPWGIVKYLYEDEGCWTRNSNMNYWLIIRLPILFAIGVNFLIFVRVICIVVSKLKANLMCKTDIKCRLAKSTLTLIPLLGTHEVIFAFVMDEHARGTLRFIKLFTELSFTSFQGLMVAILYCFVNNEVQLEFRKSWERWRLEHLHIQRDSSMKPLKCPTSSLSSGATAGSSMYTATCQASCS
measure: EC50 (nM)
Hi! Could you send only the number? It should be in nM, unit omitted.

Return EC50 measured with human GLP-1R (Homo sapiens, UniProt P43220) given this compound: Cc1cc(-n2nc3c(c2-n2ccn(-c4ccc5c(cnn5C)c4F)c2=O)C2CCC(C3)N2C(=O)c2cc3cc([C@H]4CCOC(C)(C)C4)ccc3n2[C@@]2(c3noc(=O)[nH]3)C[C@@H]2C)cc(C)c1F (some centres unmarked)
92.6

====

molecular target: human GLP-1R (Homo sapiens); construct: host or cells: HEK293; test: GLP-1R cAMP assay (Example B1a, HTRF, 30 min at room temperature); type: cell-based; settings: cAMP accumulation in HEK293 expressing human GLP-1R, no BETP, 30 min room temperature (Method B1a, compounds ID 1-609), Table 1; read-out: EC50
measure: EC50 (nM)

[I] Cc1cc(-n2nc3c(c2-n2ccn(-c4ccc5c(cnn5C)c4F)c2=O)[C@@H]2COC[C@H](C3)N2C(=O)c2cc3cc([C@H]4CCOC5(CC5)C4)ccc3n2[C@@]2(c3noc(=O)[nH]3)C[C@@H]2C)cc(C)c1F [Compound 226]
[II] Cc1cc(-n2nc3c(c2-n2ccn(-c4ccc5c(cnn5C)c4F)c2=O)[C@@H]2CC[C@H](C3)N2C(=O)c2cc3cc([C@H]4CCOC(C)(C)C4)ncc3n2[C@@]2(c3noc(=O)[nH]3)C[C@@H]2C)cc(C)c1F [Compound 211]
Given the listed items, does I or II have the lesser reported EC50? Choose, then provide that item's label.
II

====

biological target: human GLP-1R (Homo sapiens, UniProt P43220); construct: host or cells: HEK293; experiment: GLP-1R cAMP assay (Example B1a, HTRF, 30 min at room temperature); format: cell-based; settings: cAMP accumulation in HEK293 expressing human GLP-1R, no BETP, 30 min room temperature (Method B1a, compounds ID 1-609), Table 1; read-out: EC50
measure: EC50 (nM)

Entry Cc1cc(-n2nc3c(c2-n2ccn(-c4ccc5c(cnn5C)c4F)c2=O)[C@@H]2CC[C@H](C3)N2C(=O)c2cc3cc([C@H]4CCOC(C)(C)C4)ccc3n2[C@@]2(C(N)=O)C[C@@H]2C)cc(C)c1F [Compound 138] : reported EC50 = ?
1050

EC50 for Cc1cc(-n2nc3c(c2-n2ccn(-c4ccc5c(cnn5C)c4F)c2=O)[C@@H]2CC[C@H](C3)N2C(=O)c2c(C)c3cc([C@H]4CCOC(C)(C)C4)ccc3n2[C@@]2(c3noc(=O)[nH]3)C[C@@H]2C)cc(C)c1F [Compound 532] ?
672

Item under review: Cc1cc(-n2nc3c(c2-n2ccn(-c4ccc5c(cnn5C)c4F)c2=O)[C@@H]2CC[C@H](C3)N2C(=O)c2cc3cc([C@@H]4COC(C)(C)C4)ccc3n2[C@@]2(c3noc(=O)[nH]3)C[C@@H]2C)cc(C)c1F [Compound 425] . Reported EC50?
292

Tell me the measured EC50 of Cc1cc(-n2nc3c(c2-n2ccn(-c4ccc5c(cnn5C)c4F)c2=O)CN(Cc2cc4cc([C@H]5CCOC(C)(C)C5)ccc4n2[C@@]2(c4noc(=O)[nH]4)C[C@@H]2C)CCC3)cc(C)c1F [Compound 432] , please.
284

[1] Cc1cc(-n2nc3c(c2-n2ccn(-c4ccc5c(cnn5C)c4F)c2=O)[C@@H]2COC[C@H](C3)N2S(=O)(=O)c2cc3cc([C@H]4CCOC(C)(C)C4)ccc3n2[C@@]2(c3noc(=O)[nH]3)C[C@@H]2C)cc(C)c1F [Compound 536]
[2] Cc1cc(-n2nc3c(c2-n2ccn(-c4ccc5c(cnn5C)c4F)c2=O)[C@@H]2CC[C@H](C3)N2C(=O)c2cc3nc(C4CCOC(C)(C)C4)sc3n2[C@@]2(c3noc(=O)[nH]3)C[C@@H]2C)cc(C)c1F (stereo partly drawn) [Compound 139]
Higher EC50: 1 or 2 ? Response format: the label of the selected entry.
2
(2: 3110 nM, 1: 262 nM)

====

experiment: Pharmacokinetic analysis in cynomolgus monkeys; details: male, cynomolgus monkey, plasma, iv, 0.12 mg/kg
measure: half-life (h)
Unit h implied. Number only.

Dear colleague, I am looking for the recorded half-life of the following molecule: Cc1cc(-n2nc3c(c2-n2ccn(-c4ccc5c(cnn5C)c4F)c2=O)[C@H](C)N(C(=O)c2cc4cc([C@H]5CCOC(C)(C)C5)ccc4n2[C@@]2(c4noc(=O)[nH]4)C[C@@H]2C)CC3)cc(C)c1F [Orforglipron, orforglipron, reference compound]
3.7

====

target: human GLP-1R (Homo sapiens); construct: host or cells: HEK293; test: GLP-1R cAMP assay (Example B1a, HTRF, 30 min at room temperature); format: cell-based; details: cAMP accumulation in HEK293 expressing human GLP-1R, no BETP, 30 min room temperature (Method B1a, compounds ID 1-609), Table 1; read-out: EC50
measure: EC50 (µM)

Guide cases for EC50, answers given:
Can you share its EC50? I mean this compound: Cc1cc(-n2nc3c(c2-n2ccn(-c4ccc5c(cnn5C)c4F)c2=O)[C@@H]2CCC[C@H](C3)N2C(=O)c2c(C)c3cc([C@H]4CCOC(C)(C)C4)ccc3n2[C@@]2(c3noc(=O)[nH]3)C[C@@H]2C)cc(C)c1F
1.34

Sample Cc1cc(-n2nc3c(c2-n2ccn(-c4ccc5c(cnn5C)c4F)c2=O)[C@@H]2CCC[C@H](C3)N2C(=O)c2cc3cc([C@H]4CCOC(C)(C)C4)ccc3n2[C@@]2(c3noc(=O)[nH]3)C[C@@H]2C)cc(C)c1F — what was its EC50?
0.03

Quick one: EC50 for Cc1cc(-n2nc3c(c2-n2ccn(-c4ccc5c(cnn5C)c4F)c2=O)[C@@H]2CC[C@H](C3)N2C(=O)c2cc3ccc(C4CCOCC4)cc3nc2C2(c3noc(=O)[nH]3)CC2C)cc(C)c1F (single isomer, unassigned) ?
0.123

Fill in the blank: the reported EC50 of Cc1cc(-n2nc3c(c2-n2ccn(-c4ccc5c(cnn5C(F)F)c4F)c2=O)[C@@H]2CC[C@H](C3)N2C(=O)c2cc3cc([C@H]4CCOC(C)(C)C4)ccc3n2[C@@]2(c3noc(=O)[nH]3)C[C@@H]2C)cc(C)c1F is ____.
0.182

I'd like to know its EC50. The compound in question is Cc1cc(-n2nc3c(c2-n2ccn(-c4ccc5c(cnn5C)c4Cl)c2=O)[C@@H]2CC[C@H](C3)N2C(=O)c2cc3cc([C@H]4CCOC(C)(C)C4)ccc3n2[C@@]2(c3noc(=O)[nH]3)C[C@@H]2C)cc(C)c1F
0.197

[A] Cc1cc(-n2nc3c(c2-n2ccn(-c4ccc5c(cnn5C)c4Cl)c2=O)[C@@H]2COC[C@H](C3)N2C(=O)c2cc3cc([C@H]4CCOC(C)(C)C4)ccc3n2[C@@]2(c3noc(=O)[nH]3)C[C@@H]2C)cc(C)c1F
[B] Cc1cc(-n2nc3c(c2-c2nc(-c4ccc5c(cnn5C)c4F)cn2C)[C@H](C)N(C(=O)c2cc4cc([C@H]5CCOC(C)(C)C5)ccc4n2[C@@]2(c4noc(=O)[nH]4)C[C@@H]2C)CC3)cc(C)c1F
Please state the entry with greater EC50 among A and B . # respond with the chosen item's label
B
(B: 0.591 µM, A: 0.177 µM)

====

target: human GLP-1R (Homo sapiens, UniProt P43220); construct: host or cells: HEK293; assay: GLP-1R cAMP assay (Example B1a, HTRF, 30 min at room temperature); type: cell-based; conditions: cAMP accumulation in HEK293 expressing human GLP-1R, no BETP, 30 min room temperature (Method B1a, compounds ID 1-609), Table 1; read-out: EC50
pEC50: −log10 of the molar value.
measure: pEC50

Item Cc1cc(-n2nc3c(c2-n2ccn(-c4ccc5c(cnn5C)c4Cl)c2=O)[C@@H]2COC[C@H](C3)N2C(=O)c2cc3cc(C4CCOC5(CC5)C4)ccc3n2[C@@]2(c3noc(=O)[nH]3)C[C@@H]2C)cc(C)c1F (stereo partly shown) has what recorded pEC50?
6.41

Could you tell me which pEC50 is on file for Cc1cc(-n2nc3c(c2-n2ccn(-c4ccc5c(cnn5C)c4F)c2=O)C2CCC([C@H]3F)N2C(=O)c2cc3cc([C@H]4CCOC(C)(C)C4)ccc3n2[C@@]2(c3noc(=O)[nH]3)C[C@@H]2C)cc(C)c1F (stereo partly shown) ?
6.23

Name the recorded pEC50 for Cc1cc(-n2nc3c(c2-n2ccn(-c4ccc5c(cnn5C)c4F)c2=O)[C@@H]2CC[C@H](C3)N2C(=O)c2cc3ccc([C@@H]4CCOC(C)(C)C4)cc3nc2[C@@]2(c3noc(=O)[nH]3)C[C@@H]2C)cc(C)c1F .
6.33
